Value source: ChEMBL document CHEMBL3870333

# tgt: Keap1/Nrf2 (Homo sapiens)
# Sequence (Q16236 whole entry, the tested form may be a part): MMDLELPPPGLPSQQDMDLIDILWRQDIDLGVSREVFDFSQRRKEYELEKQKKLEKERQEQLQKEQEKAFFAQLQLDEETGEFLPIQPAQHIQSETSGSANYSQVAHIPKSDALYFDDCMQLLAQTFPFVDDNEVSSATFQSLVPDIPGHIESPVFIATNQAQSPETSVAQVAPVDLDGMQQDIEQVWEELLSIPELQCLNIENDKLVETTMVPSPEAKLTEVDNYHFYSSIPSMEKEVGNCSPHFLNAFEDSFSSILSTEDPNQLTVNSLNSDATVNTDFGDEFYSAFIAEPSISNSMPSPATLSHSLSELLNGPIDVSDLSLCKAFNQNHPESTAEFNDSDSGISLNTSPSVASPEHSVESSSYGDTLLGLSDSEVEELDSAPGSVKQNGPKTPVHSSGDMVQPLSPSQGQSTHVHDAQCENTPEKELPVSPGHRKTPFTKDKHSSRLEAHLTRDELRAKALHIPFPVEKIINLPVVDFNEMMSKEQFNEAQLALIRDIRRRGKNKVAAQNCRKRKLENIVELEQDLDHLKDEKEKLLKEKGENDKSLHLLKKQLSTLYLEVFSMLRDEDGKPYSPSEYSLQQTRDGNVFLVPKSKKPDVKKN
# Sequence (Q14145 whole entry, the tested form may be a part): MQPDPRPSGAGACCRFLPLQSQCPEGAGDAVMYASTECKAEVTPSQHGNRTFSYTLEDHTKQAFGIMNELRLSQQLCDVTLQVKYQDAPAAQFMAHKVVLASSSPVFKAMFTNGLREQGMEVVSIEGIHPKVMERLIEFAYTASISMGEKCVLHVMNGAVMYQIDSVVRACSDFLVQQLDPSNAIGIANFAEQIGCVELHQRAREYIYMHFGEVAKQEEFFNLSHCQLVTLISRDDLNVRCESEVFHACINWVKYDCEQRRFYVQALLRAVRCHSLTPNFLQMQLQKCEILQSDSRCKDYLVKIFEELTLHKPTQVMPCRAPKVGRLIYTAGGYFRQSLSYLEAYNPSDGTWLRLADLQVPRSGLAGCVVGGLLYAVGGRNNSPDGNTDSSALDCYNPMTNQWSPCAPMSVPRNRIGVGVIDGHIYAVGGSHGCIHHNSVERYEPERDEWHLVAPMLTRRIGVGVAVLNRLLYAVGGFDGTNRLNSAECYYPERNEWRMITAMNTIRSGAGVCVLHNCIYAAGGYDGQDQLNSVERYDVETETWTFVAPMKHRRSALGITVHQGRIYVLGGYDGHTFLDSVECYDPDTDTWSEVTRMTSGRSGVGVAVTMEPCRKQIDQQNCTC
# measurement_description: Inhibition of recombinant GST-His-tagged Keap1-DC domain (321 to 609 residues) (unknown origin) expressed in Escherichia coli/FAM-labeled Nrf2 (unknown origin) interaction measured after 30 mins by fluorescence polarization assay
Threshold 1000 nM. IC50 below it: 1. IC50 at it or above: -1.

CCOc1ccc(S(=O)(=O)Nc2cc(SCC(=O)OC)c(NS(=O)(=O)c3ccc(OCC)cc3)c3ccccc23)cc1
1
CCOc1ccc(S(=O)(=O)Nc2ccc(NS(=O)(=O)c3ccc(OCC)cc3)c3ccccc23)cc1
-1

Query: In the record for "CCOc1ccc(S(=O)(=O)Nc2cc(CC(C)=O)c(NS(=O)(=O)c3ccc(OCC)cc3)c3ccccc23)cc1" , is IC50 less than 1000 nM?
Result: -1

Query: One more compound: "CCOc1ccc(S(=O)(=O)Nc2cc(CCC(=O)O)c(NS(=O)(=O)c3ccc(OCC)cc3)c3ccccc23)cc1"
Result: 1

Query: One more compound: "CCOc1ccc(S(=O)(=O)Nc2cc(CC(=O)O)c(NS(=O)(=O)c3ccc(OCC)cc3)c3ccccc23)cc1"
Result: 1

Query: One more compound: "CCOc1ccc(S(=O)(=O)Nc2cc(Sc3nc[nH]n3)c(NS(=O)(=O)c3ccc(OCC)cc3)c3ccccc23)cc1"
Result: -1

Query: One more compound: "CCOc1ccc(S(=O)(=O)Nc2cc(CCCC(=O)O)c(NS(=O)(=O)c3ccc(OCC)cc3)c3ccccc23)cc1"
Result: 1

Query: One more compound: "COc1ccc(S(=O)(=O)Nc2cc(CC(C)=O)c(NS(=O)(=O)c3ccc(OC)cc3)c3ccccc23)cc1"
Result: -1

Query: One more compound: "CCOc1ccc(S(=O)(=O)Nc2cc(SCC(=O)O)c(NS(=O)(=O)c3ccc(OCC)cc3)c3ccccc23)cc1"
Result: 1
